Just for reference, ChEMBL document CHEMBL4689842 is where these values come from.

Test system: U2OS
Assay: Multiplex assay against U2OS
Assay type: toxicity, cell-based
Details: human, 24 h, 10 µM, compound concentration 10 uM, replicate 2
Each record's Population Pyknosed Nuclei (%) is compared with lo (below 10%), med (10% to below 30%), hi (30% or more) to give its class.

compound="CC(C)(C)NC[C@H](O)COc1nsnc1N1CCOCC1 [TIMOLOL]" grouplabel=med
compound=CC(C)NC(=O)N1CC[C@H](NC2=Nc3cc(F)ccc3N(CC(F)F)c3ccc(Cl)cc32)C1 grouplabel=med
compound="CC(C)c1noc(N2CCC(COc3ccc(-c4ccc(S(C)(=O)=O)cc4)nc3)CC2)n1 [GSK-1292263]" grouplabel=med
compound=CC(C)OC(=O)N1CCC(Oc2ncnc3c2cnn3-c2ccc(S(C)(=O)=O)cc2F)CC1 grouplabel=lo
compound=C=CC(=O)Nc1cccc(Sc2nc(Nc3ccc(N4CCN(C)CC4)cc3)ncc2Cl)c1 grouplabel=lo
compound=CNC(=O)Nc1ccc(-c2nc(N3CC4CCC(C3)O4)c3cnn(C4CCC5(CC4)OCCO5)c3n2)cc1 grouplabel=hi
compound="CN1CCN(Cc2ccc(Nc3ncc(Cl)c(Nc4ccccc4S(=O)(=O)N(C)C)n3)cc2)CC1 [DUBERMATINIB]" grouplabel=hi
compound="C=CC(=O)Nc1ccc2[nH]c(=O)n(C3CCN(Cc4ccc(-c5nc6cc[nH]c(=O)c6cc5-c5ccccc5)cc4)CC3)c2c1 [Borussertib]" grouplabel=med
compound="Cc1cccc(CN2CCN(C(c3ccccc3)c3ccc(Cl)cc3)CC2)c1.Cl.Cl (configuration not stated)" grouplabel=med
compound="O=C(c1cc2c(cc1F)OC(c1ccc(F)cc1)(c1ccc(Cl)cc1Cl)O2)N1CCOCC1 (configuration not stated)" grouplabel=med
compound=O=c1[nH]c2ccccc2n1C1CCN(Cc2ccc(-c3[nH]c4cc5ncnc5cc4nc3-c3ccccc3)cc2)CC1 grouplabel=hi
compound="CCCSc1nc(N[C@@H]2C[C@H]2c2ccc(F)c(F)c2)c2nnn([C@@H]3C[C@H](OCCO)[C@@H](O)[C@H]3O)c2n1 [TICAGRELOR]" grouplabel=med

---

Test system: HEK-293T
Test: Multiplex assay against HEK293T
Format: toxicity, cell-based
Conditions: human, 24 h, 10 µM, compound concentration 10 uM, replicate 1
Assign labels as follows, please: True for Total Cell Count below 300; False for Total Cell Count equal to or exceeding 300.

molecule=Cc1c[nH]c2nccc(Oc3c(F)cc(Nc4cc(Cl)nc(N)n4)cc3F)c12 grouplabel=False
molecule=CC(C)Oc1ccccc1C(=O)Nc1ccccc1C(=O)Nc1cccc(S(=O)(=O)C(F)(F)F)c1 grouplabel=False
molecule=CC(C)OC(=O)N1CCC(Oc2ncnc3c2cnn3-c2ccc(S(C)(=O)=O)cc2F)CC1 grouplabel=True
molecule=Cc1ccc(C)c(Oc2ccncc2C(=O)N2CCN(C3CC3)c3ccccc32)c1 grouplabel=True
molecule="O=C(c1cc2c(cc1F)OC(c1ccc(F)cc1)(c1ccc(Cl)cc1Cl)O2)N1CCOCC1 (stereo not drawn)" grouplabel=True
molecule="CC1=C(C(=O)Nc2cc3cn[nH]c3cc2F)C(c2ccc(C(F)(F)F)cc2)CC(=O)N1 (stereo not drawn)" grouplabel=True
molecule=CCCSc1nc(N[C@@H]2C[C@H]2c2ccc(F)c(F)c2)c2nnn([C@@H]3C[C@H](OCCO)[C@@H](O)[C@H]3O)c2n1 grouplabel=True

---

Tested on: U2OS
Test: Multiplex assay against U2OS
Type: toxicity, cell-based
Settings: human, 48 h, 1 µM, compound concentration 1 uM, replicate 1
measuredEndpoint: Population Membrane Permeable-Phenotype (%)

molecule="O=C(c1cc2c(cc1F)OC(c1ccc(F)cc1)(c1ccc(Cl)cc1Cl)O2)N1CCOCC1 (centres undefined)" tgt=U2OS obsvalue=4
molecule="Cc1ccc2c(c1)c1c(n2CCc2ccc(C)nc2)CCN(C)C1 [LATREPIRDINE]" tgt=U2OS obsvalue=6
molecule=CC(C)c1noc(N2CCC(COc3ccc(-c4ccc(S(C)(=O)=O)cc4)nc3)CC2)n1 tgt=U2OS obsvalue=2
molecule=COc1ccccc1CN[C@H]1C2CCN(CC2)[C@H]1C(c1ccccc1)c1ccccc1 tgt=U2OS obsvalue=2
molecule=O=c1cc(N2CCOCC2)oc2c(-c3cccc4c3sc3ccccc34)cccc12 tgt=U2OS obsvalue=3
molecule=CNC(=O)Nc1ccc(-c2nc(N3CC4CCC(C3)O4)c3cnn(C4CCC5(CC4)OCCO5)c3n2)cc1 tgt=U2OS obsvalue=3
molecule="CC1=C(C(=O)Nc2cc3cn[nH]c3cc2F)C(c2ccc(C(F)(F)F)cc2)CC(=O)N1 (centres undefined)" tgt=U2OS obsvalue=3
molecule=CN1CCN(Cc2ccc(Nc3ncc(Cl)c(Nc4ccccc4S(=O)(=O)N(C)C)n3)cc2)CC1 tgt=U2OS obsvalue=8
molecule="CCc1nn(CCCN2CCN(c3cccc(Cl)c3)CC2)c(=O)n1CCOc1ccccc1.Cl [NEFAZODONE HYDROCHLORIDE]" tgt=U2OS obsvalue=3

---

System: U2OS
Experiment: Incucyte cell viability with U2OS; further: filed as whole numbers so only -1 and 0 and 1 occur
Assay type: toxicity, cell-based
Settings: human, 6 h, 10 µM, compound concentration 10 uM, replicate number 1, timepoint 6 hours
measuredEndpoint: Growth Rate

cpdsmiles=COc1cc(-c2cn([C@H]3CCc4ccccc4N(CC(F)(F)F)C3=O)nn2)ccc1-n1ccc(C)n1 tgt=U2OS measuredendpoint="Growth Rate" obsvalue=0
cpdsmiles=Cc1nc(N2CC[C@H](O)C2)ncc1-c1cc(C(F)(F)F)cc2[nH]ncc12 tgt=U2OS measuredendpoint="Growth Rate" obsvalue=0
cpdsmiles=O=c1cc(N2CCOCC2)oc2c(-c3cccc4c3sc3ccccc34)cccc12 tgt=U2OS measuredendpoint="Growth Rate" obsvalue=0
cpdsmiles=CNC(=O)Nc1ccc2c(c1)[C@@]1(CC2)OC(=O)N(CC(=O)N(Cc2ccc(F)cc2)[C@@H](C)C(F)(F)F)C1=O tgt=U2OS measuredendpoint="Growth Rate" obsvalue=0
cpdsmiles=CO[C@@H](C)c1c(Nc2ccc([C@H](N(C)C(=O)C3CCS(=O)(=O)CC3)C(F)(F)F)cc2)cnc2cc(Cl)nn12 tgt=U2OS measuredendpoint="Growth Rate" obsvalue=0
cpdsmiles=CN1C[C@H](Nc2cnn(C)c(=O)c2Br)C[C@H](c2ccccc2)C1 tgt=U2OS measuredendpoint="Growth Rate" obsvalue=0
cpdsmiles=O[C@H]1CC[C@H](Nc2ncc3nc(Nc4c(F)cc(F)cc4F)n([C@H]4CCOC4)c3n2)CC1 tgt=U2OS measuredendpoint="Growth Rate" obsvalue=0
cpdsmiles=CC(C)Oc1ccc(-c2c[nH]cc2CN(C)CCN)cc1 tgt=U2OS measuredendpoint="Growth Rate" obsvalue=0
cpdsmiles=O=C(N[C@@H](C1CC1)C(F)(F)F)c1cc(-c2cnn3cc(-c4ccc(F)cc4)cnc23)cs1 tgt=U2OS measuredendpoint="Growth Rate" obsvalue=0
cpdsmiles=O=C1CCc2cc(Nc3cc(OC4CCOCC4)c([N+](=O)[O-])cc3Cl)ccc2N1 tgt=U2OS measuredendpoint="Growth Rate" obsvalue=0
cpdsmiles=CCOC(=O)CCNc1cc(N2CCc3ccccc3CC2)nc(-c2cccnc2)n1 tgt=U2OS measuredendpoint="Growth Rate" obsvalue=1
cpdsmiles=C=CC(=O)Nc1ccc2[nH]c(=O)n(C3CCN(Cc4ccc(-c5nc6cc[nH]c(=O)c6cc5-c5ccccc5)cc4)CC3)c2c1 tgt=U2OS measuredendpoint="Growth Rate" obsvalue=1
cpdsmiles=Nc1ncnc2c1ccn2[C@@H]1O[C@H]([C@H](O)c2ccccc2)[C@@H](O)[C@H]1O tgt=U2OS measuredendpoint="Growth Rate" obsvalue=0

---

Tested on: HEK-293T
Test: Multiplex assay against HEK293T
Format: toxicity, cell-based
Conditions: human, 48 h, 1 µM, compound concentration 1 uM, replicate 1
Class assignment keyed on Population Pyknosed Nuclei (%), ranges 1 = under 30%, 2 = from 30% up to 40%, 3 = 40% and over

compound="Cc1ccc2c(c1)c1c(n2CCc2ccc(C)nc2)CCN(C)C1 [LATREPIRDINE]" grouplabel=1
compound="O=C(c1cc2c(cc1F)OC(c1ccc(F)cc1)(c1ccc(Cl)cc1Cl)O2)N1CCOCC1 (stereo unspecified)" grouplabel=2
compound=CC(C)c1noc(N2CCC(COc3ccc(-c4ccc(S(C)(=O)=O)cc4)nc3)CC2)n1 grouplabel=3
compound=COC(=O)C1=C(C)NC(C)=C(C(=O)OCCCN2CCC(c3ccccc3)(c3ccccc3)CC2)[C@H]1c1cccc([N+](=O)[O-])c1 grouplabel=2
compound="COc1cc2ncn(-c3cc(OCc4ccccc4C(F)(F)F)c(C(N)=O)s3)c2cc1OC [GW843682X]" grouplabel=3
compound=CC(C)Oc1ccccc1C(=O)Nc1ccccc1C(=O)Nc1cccc(S(=O)(=O)C(F)(F)F)c1 grouplabel=2
compound="CC1=C(C(=O)Nc2cc3cn[nH]c3cc2F)C(c2ccc(C(F)(F)F)cc2)CC(=O)N1 (stereo unspecified)" grouplabel=2
compound=COc1ccccc1CN[C@H]1C2CCN(CC2)[C@H]1C(c1ccccc1)c1ccccc1 grouplabel=2
compound=COc1cc(Nc2nccc(-c3cnn4nc(OC)ccc34)n2)cc(C(F)(F)F)c1 grouplabel=3
compound=C[C@]12CC[C@@H]3c4ccc(O)cc4CC[C@H]3[C@@H]1CC[C@@H]2O grouplabel=1
compound="CCc1nn(CCCN2CCN(c3cccc(Cl)c3)CC2)c(=O)n1CCOc1ccccc1.Cl [NEFAZODONE HYDROCHLORIDE]" grouplabel=1
compound=COc1ccc(-c2ccc3ncc4c(c3c2)n(-c2ccc(N3CCNCC3)c(C(F)(F)F)c2)c(=O)n4C)cn1.O=C(O)/C=C\C(=O)O grouplabel=3
compound=CN1CCN(Cc2ccc(Nc3ncc(Cl)c(Nc4ccccc4S(=O)(=O)N(C)C)n3)cc2)CC1 grouplabel=1
compound="Cc1ccccc1C(c1ccccc1C)N1C2CCC1CC(O)(c1ccccc1)C2 (stereo unspecified)" grouplabel=1
compound=Cc1c[nH]c2nccc(Oc3c(F)cc(Nc4cc(Cl)nc(N)n4)cc3F)c12 grouplabel=2
